Provenance of the data: ChEMBL document CHEMBL4342522

Ki values for the molecules below.
# target or test system: Bromodomain-containing protein 4 (Homo sapiens)
# protocol: Inhibition of human N-terminal His6 tagged BRD4 BD2 (352 to 457) residues expressed in Escherichia coli BL21(DE3) cells after 1 hr by TR-FRET assay
readout label: Ki (nM)

cpd smiles	readout number
CCNC(=O)c1cc2c(-c3cc(S(N)(=O)=O)ccc3Oc3c(C)cccc3C)cn(C)c(=O)c2[nH]1	1.1
CCNC(=O)c1cc2c(-c3cc(S(=O)(=O)CC)ccc3Oc3c(C)cccc3C(F)(F)F)cn(C)c(=O)c2[nH]1	5.8
CCNC(=O)c1cc2c(-c3cc(S(=O)(=O)CC)ccc3Oc3c(C)cccc3C(F)F)cn(C)c(=O)c2[nH]1	2.1
CCNC(=O)c1cc2c(-c3cc(C4(O)CCOCC4)ccc3Oc3c(C)cc(F)cc3C)cn(C)c(=O)c2[nH]1	1.2
CCNC(=O)c1cc2c(-c3cc(S(=O)(=O)CC)ccc3Oc3c(C)cccc3C)cn(C)c(=O)c2[nH]1	1.1
